Biological target: Corticotropin-releasing factor receptor 2/Corticotropin-releasing factor-binding protein (Homo sapiens, UniProt P24387+Q13324)
Sequence (Q13324 whole entry): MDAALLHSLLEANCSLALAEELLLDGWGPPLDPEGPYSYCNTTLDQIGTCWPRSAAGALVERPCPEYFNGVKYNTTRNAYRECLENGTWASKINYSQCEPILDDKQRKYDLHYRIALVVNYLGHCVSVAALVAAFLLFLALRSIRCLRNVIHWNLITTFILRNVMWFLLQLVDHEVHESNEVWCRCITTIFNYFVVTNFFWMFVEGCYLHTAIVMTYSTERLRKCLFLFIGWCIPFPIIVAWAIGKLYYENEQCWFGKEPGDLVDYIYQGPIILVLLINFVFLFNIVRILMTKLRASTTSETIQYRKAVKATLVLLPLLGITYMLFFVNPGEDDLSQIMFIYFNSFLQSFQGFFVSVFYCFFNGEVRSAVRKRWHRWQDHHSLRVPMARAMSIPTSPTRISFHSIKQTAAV
Sequence (P24387 whole entry): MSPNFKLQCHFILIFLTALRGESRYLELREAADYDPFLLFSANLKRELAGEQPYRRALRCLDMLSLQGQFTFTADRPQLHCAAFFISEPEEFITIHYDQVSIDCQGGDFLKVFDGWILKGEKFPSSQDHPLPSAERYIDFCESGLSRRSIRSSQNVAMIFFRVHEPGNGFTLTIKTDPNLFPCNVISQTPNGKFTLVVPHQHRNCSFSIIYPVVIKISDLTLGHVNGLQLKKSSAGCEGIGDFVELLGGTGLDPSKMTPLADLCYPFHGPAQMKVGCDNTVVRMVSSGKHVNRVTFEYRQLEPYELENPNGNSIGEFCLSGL
Assay: Dose Response confirmation of uHTS hits for small molecule antagonists of the CRF-binding protein and CRF-R2 receptor complex.
Assay type: functional
Settings: read-out: IC50_Mean
Activity calls are given as the source filed them.
The reply should name one outcome from true = active, false = inactive

Please share the test call associated with COCCN=C(S)N1CCc2cc(OC)c(OC)cc2C1COc1cc(C)cc(C)c1 (centres undefined) .
true

Next:
Please share the test call associated with C/C(=N\Nc1cc(C)nc(-c2ccccc2)n1)c1cccc([N+](=O)[O-])c1 .
false

Which outcome was entered for the molecule CCN(c1ccccc1)S(=O)(=O)c1ccc(NC(=O)c2ccco2)cc1 in this test?
false

Hey, what did the test say about CN(CC1CCOCC1)C(=O)CC1C(=O)NCCN1Cc1ccc(Cl)c(F)c1 (centres undefined) ?
false

----------
assay: cytotoxicity toward DRD oncogenic fibroblasts, dose response, cell-based, non-viral oncogenic, luminescence (AID 1934); assay type: functional; conditions: Homo sapiens
Calls of active or inactive are those of the source.
Measured Endpoint: EC50

Past entries and their recorded results:
Tell me EC50 reported for O=C(COc1ccc(Cl)cc1)Nc1ccc(C(=O)NCc2cccnc2)cc1
> 150 µM (inconclusive)

Please give the documented EC50 of O=C(Nc1ccc2nc3n(c(=O)c2c1)CCCCC3)c1c(F)ccc([N+](=O)[O-])c1F
4.04 µM (inconclusive)

# return recorded EC50 for input COc1ccc(C)cc1NS(=O)(=O)c1ccc(-c2cnc(C3CC3)o2)cc1
0.388 µM (active)

# input for lookup
Supply recorded EC50 for Cc1ccsc1C(=O)N/N=C/c1ccc2c(c1)OCO2 here.
9.95 µM (inconclusive)

----------
molecular target: Sentrin-specific protease 7 (Homo sapiens, UniProt Q9BQF6); type: functional;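 also: Luminescence-based dose-response confirmation of ultra-high-throughput screening hits, measuring inhibition of SENP7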
Sequence (Q9BQF6 whole entry): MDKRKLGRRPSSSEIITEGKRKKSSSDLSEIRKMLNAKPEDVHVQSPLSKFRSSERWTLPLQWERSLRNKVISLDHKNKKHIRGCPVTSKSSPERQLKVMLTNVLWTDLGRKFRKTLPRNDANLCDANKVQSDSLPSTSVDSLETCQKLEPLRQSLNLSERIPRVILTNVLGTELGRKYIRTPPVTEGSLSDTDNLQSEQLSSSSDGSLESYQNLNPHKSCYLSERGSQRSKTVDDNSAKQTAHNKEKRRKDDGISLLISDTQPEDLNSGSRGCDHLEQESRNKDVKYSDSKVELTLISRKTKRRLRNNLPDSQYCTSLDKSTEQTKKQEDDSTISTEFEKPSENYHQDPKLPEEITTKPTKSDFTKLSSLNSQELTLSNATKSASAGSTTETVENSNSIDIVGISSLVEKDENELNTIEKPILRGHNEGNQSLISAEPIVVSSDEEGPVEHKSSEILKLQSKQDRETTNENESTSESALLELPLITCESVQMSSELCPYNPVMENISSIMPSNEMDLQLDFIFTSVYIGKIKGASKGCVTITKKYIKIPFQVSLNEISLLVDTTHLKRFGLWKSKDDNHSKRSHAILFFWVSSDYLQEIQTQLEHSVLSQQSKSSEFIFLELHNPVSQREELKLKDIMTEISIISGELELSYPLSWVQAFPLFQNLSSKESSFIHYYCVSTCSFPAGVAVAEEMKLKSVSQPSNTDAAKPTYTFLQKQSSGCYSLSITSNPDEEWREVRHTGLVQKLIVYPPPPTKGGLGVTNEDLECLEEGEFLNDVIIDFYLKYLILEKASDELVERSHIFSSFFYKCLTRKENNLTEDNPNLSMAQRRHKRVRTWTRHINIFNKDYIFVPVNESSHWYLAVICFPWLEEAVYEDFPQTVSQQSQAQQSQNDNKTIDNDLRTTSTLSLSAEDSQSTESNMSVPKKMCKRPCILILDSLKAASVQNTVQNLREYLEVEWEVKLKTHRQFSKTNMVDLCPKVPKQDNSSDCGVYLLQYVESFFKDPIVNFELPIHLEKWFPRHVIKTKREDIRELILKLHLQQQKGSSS
The source made the active and inactive calls.
Measured Endpoint: IC50

Would you please look over these solved cases?
Identify measured IC50 associated with O=C(O)C(Oc1ccc2cc(-c3ccc(Cl)cc3)c(=O)oc2c1)c1ccccc1 (configuration not stated)
28.7 µM (active)

Give the value of IC50 reported for the following: O=C(COC(=O)c1ccc([N+](=O)[O-])s1)NCc1ccc(F)cc1
6.18 µM (active)

For O=C(Nc1ccc2ncccc2c1)c1cccc(Br)c1 , write its IC50.
8.67 µM (active)

More entries:
Tell me IC50 reported for CC(=O)Nc1ccc(-c2nc3cc(Cl)ccc3o2)cc1
2.77 µM (active)

Report IC50 for S=C(Nc1ccc(Cl)cc1)Nc1cccc2cnccc12
6.24 µM (active)

Kindly indicate its recorded IC50. Item: Cc1ccc(C(=O)c2cc3ccccc3o2)cc1C
3.18 µM (active)

Give reported IC50 value for CN(C)c1ccc(/C=N/Nc2nc3ccccc3o2)cc1
< 1.55 µM (active)
